# assaySystem: WT EZH2 (Homo sapiens (Human))
# Sequence (Q15910 whole entry, looked up): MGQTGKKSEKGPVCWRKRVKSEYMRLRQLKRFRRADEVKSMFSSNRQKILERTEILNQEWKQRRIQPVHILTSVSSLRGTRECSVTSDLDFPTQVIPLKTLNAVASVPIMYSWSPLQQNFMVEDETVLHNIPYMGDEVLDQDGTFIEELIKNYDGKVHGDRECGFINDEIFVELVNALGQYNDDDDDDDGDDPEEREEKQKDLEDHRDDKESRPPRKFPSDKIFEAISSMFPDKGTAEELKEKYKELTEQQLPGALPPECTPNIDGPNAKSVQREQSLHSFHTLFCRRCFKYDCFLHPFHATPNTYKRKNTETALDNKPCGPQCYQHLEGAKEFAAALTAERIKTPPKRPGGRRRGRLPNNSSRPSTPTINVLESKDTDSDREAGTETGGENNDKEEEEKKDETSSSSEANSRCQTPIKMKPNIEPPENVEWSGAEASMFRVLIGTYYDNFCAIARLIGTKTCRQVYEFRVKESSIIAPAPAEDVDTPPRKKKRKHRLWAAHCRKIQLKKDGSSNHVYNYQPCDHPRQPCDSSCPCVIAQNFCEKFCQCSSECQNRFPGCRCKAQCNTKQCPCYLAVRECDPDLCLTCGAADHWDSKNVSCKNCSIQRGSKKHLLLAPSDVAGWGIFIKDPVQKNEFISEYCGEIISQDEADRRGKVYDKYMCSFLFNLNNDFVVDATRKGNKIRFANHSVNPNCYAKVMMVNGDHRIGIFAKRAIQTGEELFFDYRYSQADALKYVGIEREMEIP
# Sequence (O75530 whole entry partner, looked up): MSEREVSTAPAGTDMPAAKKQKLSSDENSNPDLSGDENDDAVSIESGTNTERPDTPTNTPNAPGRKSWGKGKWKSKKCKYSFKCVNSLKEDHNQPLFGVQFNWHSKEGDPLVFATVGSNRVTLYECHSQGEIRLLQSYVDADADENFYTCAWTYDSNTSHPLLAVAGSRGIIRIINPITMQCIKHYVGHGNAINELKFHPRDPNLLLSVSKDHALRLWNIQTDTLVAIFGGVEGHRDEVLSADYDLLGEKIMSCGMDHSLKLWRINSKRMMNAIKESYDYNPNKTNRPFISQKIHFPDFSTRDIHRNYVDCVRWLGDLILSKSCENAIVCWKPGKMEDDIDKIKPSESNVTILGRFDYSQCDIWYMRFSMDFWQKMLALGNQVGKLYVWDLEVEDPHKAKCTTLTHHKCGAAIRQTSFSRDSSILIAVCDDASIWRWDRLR
# Sequence (Q15022 whole entry partner, looked up): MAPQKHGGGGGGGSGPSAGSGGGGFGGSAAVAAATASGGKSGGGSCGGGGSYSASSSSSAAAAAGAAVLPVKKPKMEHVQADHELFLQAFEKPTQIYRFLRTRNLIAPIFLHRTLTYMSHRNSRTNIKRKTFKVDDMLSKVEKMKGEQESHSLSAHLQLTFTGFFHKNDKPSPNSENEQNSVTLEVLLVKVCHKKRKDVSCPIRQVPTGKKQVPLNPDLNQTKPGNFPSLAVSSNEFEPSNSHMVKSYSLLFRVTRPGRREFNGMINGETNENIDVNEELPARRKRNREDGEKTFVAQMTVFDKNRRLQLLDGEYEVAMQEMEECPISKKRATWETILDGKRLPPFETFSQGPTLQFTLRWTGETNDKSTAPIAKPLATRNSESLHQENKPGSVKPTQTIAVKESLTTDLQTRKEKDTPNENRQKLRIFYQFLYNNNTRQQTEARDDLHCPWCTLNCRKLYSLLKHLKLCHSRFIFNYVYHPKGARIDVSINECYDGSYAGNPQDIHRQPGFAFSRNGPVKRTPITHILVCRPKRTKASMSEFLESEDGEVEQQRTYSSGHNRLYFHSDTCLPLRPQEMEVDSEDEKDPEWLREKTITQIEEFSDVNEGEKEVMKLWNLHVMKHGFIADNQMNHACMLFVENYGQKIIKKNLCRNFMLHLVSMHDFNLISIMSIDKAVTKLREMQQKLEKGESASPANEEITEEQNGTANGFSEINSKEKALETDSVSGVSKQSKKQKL
# Sequence (Q09028 whole entry partner, looked up): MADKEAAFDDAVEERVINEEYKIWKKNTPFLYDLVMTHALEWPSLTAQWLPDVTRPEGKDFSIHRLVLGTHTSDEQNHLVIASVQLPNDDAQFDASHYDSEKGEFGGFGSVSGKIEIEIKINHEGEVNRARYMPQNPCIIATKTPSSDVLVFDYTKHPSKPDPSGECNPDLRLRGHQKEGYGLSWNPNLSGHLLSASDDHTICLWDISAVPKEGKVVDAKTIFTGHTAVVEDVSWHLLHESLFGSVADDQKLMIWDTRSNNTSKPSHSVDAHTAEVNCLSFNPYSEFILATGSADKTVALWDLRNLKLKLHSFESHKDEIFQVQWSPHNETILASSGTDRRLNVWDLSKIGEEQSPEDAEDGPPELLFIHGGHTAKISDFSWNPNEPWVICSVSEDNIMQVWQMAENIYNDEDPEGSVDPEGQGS
# methodNotes: WT EZH2 nucleosome assay (10X SAM, high SAM conditions)
# Assay type: biochemical
# protocolConditions: 15 uM SAM, Ki app from competitive inhibition fit, read-out: WT EZH2 Nucleosome assay (10X SAM) Ki
Rule: measured Ki below 20 nM gets Met; anything equal to or greater than 20 nM gets Not met.

Look over these answered cases.
* Cc1cc(C)c(CN2CCc3ccc([C@@H](CO)[C@@H]4CCOC4)c(Cl)c3C2=O)c(=O)[nH]1 (racemic) | Met
* COc1cc(C)[nH]c(=O)c1CN1CCc2c(C)cc(C(OC)C3COC3)c(Cl)c2C1=O (single isomer, unassigned) [Example 144] | Met
* CC(=C1CNC1)c1cc(Cl)c2c(c1Cl)C(=O)N(Cc1c(C)cc(C)[nH]c1=O)CC2 | Met
* COC(c1cc(Cl)c2c(c1Cl)C(=O)N(Cc1c(C)cc(C)[nH]c1=O)CC2)C1CN(C(=O)[C@@H](C)O)C1 (single isomer, unassigned) [Example 171] | Not met
* Cc1cc(C)c(CN2CCc3c(Cl)cc(C(C)N4CCOCC4)c(Cl)c3C2=O)c(=O)[nH]1 (racemic) [Example 89] | Met
* Cc1cc(C)c(CN2CCc3c(C)cc(C(C)C4COC4)c(Cl)c3C2=O)c(=O)[nH]1 (single isomer, unassigned) [Example 195] | Not met
* COC(c1cc(Cl)c2c(c1Cl)C(=O)N(Cc1c(C)cc(C)[nH]c1=O)CC2)C1CCNCC1 (single isomer, unassigned) [Example 167] | Not met
* COC(c1cc(C)c2c(c1Cl)C(=O)N(Cc1c(C)cc(C)[nH]c1=O)CC2)C1CCN(C(=O)CO)CC1 (single isomer, unassigned) [Example 169] | Met

// query Say whether its Ki is strictly beneath 20 nM. Entry: Cc1cc(C)c(CN2CCc3c(Cl)cc(C(F)C4CCN(C(=O)CO)CC4)c(Cl)c3C2=O)c(=O)[nH]1 (single isomer, unassigned; (-)) [Example 9]
// result Met

// query Find out if reported Ki for Cc1cc(C)c(CN2CCc3c(Cl)cc(C(CO)N4CC[C@@H](F)C4)c(Cl)c3C2=O)c(=O)[nH]1 (stereo partly shown) [Example 5] is less than 20 nM
// result Not met

// query Strictly below 20 nM in Ki? Cc1cc(C)c(CN2CCc3c(Cl)cc([C@@H](CO)[C@H]4CCCO4)c(Cl)c3C2=O)c(=O)[nH]1
// result Not met

// query Please check: Ki for Cc1cc(C)c(CN2CCc3c(Cl)cc(C(C)C4CN(C(=O)CO)C4)c(Cl)c3C2=O)c(=O)[nH]1 (single isomer, unassigned) [Example 184] , strictly under 20 nM or not?
// result Met

// query A record lists Cc1cc(C)c(CN2CCc3c(Cl)cc(C(C)C4CN(C(=O)CO)C4)c(Cl)c3C2=O)c(=O)[nH]1 (single isomer, unassigned) [Example 183] . Is its Ki below 20 nM?
// result Not met

###

# assaySystem: EZH2 Mutant Y641N (Homo sapiens (Human), UniProt Q15910, Y641N)
# Sequence (Q15910 whole entry Y641N, looked up): as the sequence (Q15910 whole entry, looked up) above, with Y641N counted along it
# Sequence (O75530 whole entry partner, looked up): as the sequence (O75530 whole entry partner, looked up) above
# Sequence (Q15022 whole entry partner, looked up): as the sequence (Q15022 whole entry partner, looked up) above
# Sequence (Q09028 whole entry partner, looked up): as the sequence (Q09028 whole entry partner, looked up) above
# methodNotes: EZH2 Mutant Y641N nucleosome assay
# Type: biochemical
# protocolConditions: PRC2 4-protein complex 6 nM, 1.5 μM SAM, HeLa oligonucleosomes; read-out: EZH2 Mutant Y641N Nucleosome assay IC50
Labelling field: enter t if recorded IC50 is less than 0.008 µM. Enter f if it equals or exceeds that cut-off.

These solved cases illustrate the format of a correct answer.
• Cc1cc(C)c(CN2CCc3c(Cl)cc(C(CO)N4CCOCC4)c(Cl)c3C2=O)c(=O)[nH]1 (racemic) [Example 60] = f
• Cc1cc(C)c(CN2CCc3c(Cl)cc(C(C)N4CCOCC4)c(Cl)c3C2=O)c(=O)[nH]1 (single isomer, unassigned; (-)) [Example 91] = f
• COc1cc(C)[nH]c(=O)c1CN1CCc2c(C)cc(C(OC)C3COC3)c(Cl)c2C1=O (single isomer, unassigned) [Example 144] = t

Proceed to the following item.
// query Record COc1cc(C)[nH]c(=O)c1CN1CCc2c(C)cc([C@@H](OC)[C@H]3CCOC3)c(Cl)c2C1=O : is its IC50 strictly below 0.008 µM?
// result f
